Target: T1, CD7-His protein (UniProt P09564 26-180, limits assumed)
T1 construct: extracellular domain; also called recombinant CD7-His protein; CD7 antigen; not shown: His tag
T1 sequence (looked up): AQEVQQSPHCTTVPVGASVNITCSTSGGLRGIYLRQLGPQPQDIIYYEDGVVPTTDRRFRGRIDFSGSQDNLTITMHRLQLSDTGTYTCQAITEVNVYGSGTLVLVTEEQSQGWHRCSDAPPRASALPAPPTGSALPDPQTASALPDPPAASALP
Assay: SPR, CD7-His immobilised on CM5 chip by amino coupling, antibody as analyte
Listed below: Kd values for each entry.
Respond with the bare value in nM.

Check out these entries, answers already filled in.
{"BINDER": "VHH10 (VHH, Variable region only; also called anti-CD7 nanobody VHH10) VHH: QVQLQESGGGLVQTGGSLRLSCEASERTFSSNAVGWFRQAPGKEREFVAAITWSVGTTYYADSVKGRFTISRDNAKNTVYLQMNSLKPEDTAVYYCAASGARHYSGSYLDFGSWGQGTQVTVSS", "MEASUREMENT_UNIT": "nM", "MEASURED_VALUE": 99.9}
{"BINDER": "VHH12 (VHH, Variable region only; also called anti-CD7 nanobody VHH12) VHH: QVQLQESGGGLVQPGGSLRLSCAASGSTLDYYAIGWFRQAPGKEREGISCISNSGGMTNYADSVKGRFTISRDNAKNTVYLQMNSLKPEDTAVYYCAAGPAWSYCSGYVPAGLDKFGSWGQGTQVTVSS", "MEASUREMENT_UNIT": "nM", "MEASURED_VALUE": 1.34}
{"BINDER": "dVHH-E (other, also called VHH-10+VHH-10; double VHH antibody dVHH-E; not shown: Linker) chain (part 1 of 2): QVQLQESGGGLVQTGGSLRLSCEASERTFSSNAVGWFRQAPGKEREFVAAITWSVGTTYYADSVKGRFTISRDNAKNTVYLQMNSLKPEDTAVYYCAASGARHYSGSYLDFGSWGQGTQVTVSS chain (part 2 of 2): QVQLQESGGGLVQTGGSLRLSCEASERTFSSNAVGWFRQAPGKEREFVAAITWSVGTTYYADSVKGRFTISRDNAKNTVYLQMNSLKPEDTAVYYCAASGARHYSGSYLDFGSWGQGTQVTVSS", "MEASUREMENT_UNIT": "nM", "MEASURED_VALUE": 4.51}

Exercise: What Kd value was documented for this binder, dVHH-D (other, also called VHH-10+VHH-12; double VHH antibody dVHH-D; not shown: Linker) chain (part 1 of 2): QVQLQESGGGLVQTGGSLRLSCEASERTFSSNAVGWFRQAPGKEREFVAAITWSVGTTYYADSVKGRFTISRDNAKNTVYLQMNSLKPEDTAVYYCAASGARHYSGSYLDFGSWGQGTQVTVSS chain (part 2 of 2): QVQLQESGGGLVQPGGSLRLSCAASGSTLDYYAIGWFRQAPGKEREGISCISNSGGMTNYADSVKGRFTISRDNAKNTVYLQMNSLKPEDTAVYYCAAGPAWSYCSGYVPAGLDKFGSWGQGTQVTVSS ?
Solution: 3.35

From: patent US20250352579A1
